assay: Pharmacokinetics test in SD rats (oral gavage, PEG400 suspension); format: in vivo; conditions: male SD rats, 200 mg/kg
Where a name gives a salt, the structure may show the parent alone.
Reported Cmax values are given for each entry in this list.
observable: Cmax (ng/mL)

> print(dat)
                                   compound  observable  reading
1  Cc1noc(-c2c(N)ncnc2N[C@@H](C)c2nc3cccc(C#CCO)c3c(=O)n2-c2ccccc2)n1 [crystal form A of phosphate salt]        Cmax     3950
2  Cc1noc(-c2c(N)ncnc2N[C@@H](C)c2nc3cccc(C#CCO)c3c(=O)n2-c2ccccc2)n1 [crystal form A of bisulfate salt]        Cmax     4080
3  Cc1noc(-c2c(N)ncnc2N[C@@H](C)c2nc3cccc(C#CCO)c3c(=O)n2-c2ccccc2)n1 [Free base crystal form 2]        Cmax     5800
4  Cc1noc(-c2c(N)ncnc2N[C@@H](C)c2nc3cccc(C#CCO)c3c(=O)n2-c2ccccc2)n1 [crystal form A of Sulfate salt]        Cmax     3310
5  Cc1noc(-c2c(N)ncnc2N[C@@H](C)c2nc3cccc(C#CCO)c3c(=O)n2-c2ccccc2)n1 [crystal form A of p-toluenesulfonate salt]        Cmax     6810

###

assay: Pharmacokinetics test in SD rats (oral gavage, PEG400 suspension); type: in vivo; conditions: male, SD, rat, plasma, po, 200 mg/kg
observable: AUC(0-t) (ng·h/mL)

> print(dat)
                                chem.smiles  result.units  reading
1  Cc1noc(-c2c(N)ncnc2N[C@@H](C)c2nc3cccc(C#CCO)c3c(=O)n2-c2ccccc2)n1       ng·h/mL    55200

###

assay: Pharmacokinetics test in SD rats (oral gavage, PEG400 suspension); format: in vivo; conditions: male SD rats, 200 mg/kg
Counter-ions that a name gives are not always drawn.
Reported AUClast values are given for each entry in this list.
observable: AUClast (ng·h/mL)

> print(dat)
                                   compound  observable  result.units  reading
1  Cc1noc(-c2c(N)ncnc2N[C@@H](C)c2nc3cccc(C#CCO)c3c(=O)n2-c2ccccc2)n1 [crystal form A of phosphate salt]     AUClast       ng·h/mL    37800
2  Cc1noc(-c2c(N)ncnc2N[C@@H](C)c2nc3cccc(C#CCO)c3c(=O)n2-c2ccccc2)n1 [crystal form A of Sulfate salt]     AUClast       ng·h/mL    35300
3  Cc1noc(-c2c(N)ncnc2N[C@@H](C)c2nc3cccc(C#CCO)c3c(=O)n2-c2ccccc2)n1 [Free base crystal form 2]     AUClast       ng·h/mL    39800
4  Cc1noc(-c2c(N)ncnc2N[C@@H](C)c2nc3cccc(C#CCO)c3c(=O)n2-c2ccccc2)n1 [crystal form A of bisulfate salt]     AUClast       ng·h/mL    40600

###

experiment: Pharmacokinetics test in Beagle dogs (oral capsules); format: in vivo; details: male, Beagle, dog, plasma, po, 10 mg/kg, male Beagle dogs, oral capsules, 10 mg/kg; read-out: Tmax
observable: Tmax (h)

> print(dat)
                                chem.smiles  observable  reading
1  Cc1noc(-c2c(N)ncnc2N[C@@H](C)c2nc3cccc(C#CCO)c3c(=O)n2-c2ccccc2)n1        Tmax        3

###

Reported Tmax values are given for each entry in this list.
test: Pharmacokinetics test in SD rats (oral gavage, PEG400 suspension); assay type: in vivo; conditions: male SD rats, 200 mg/kg
Structures can show the parent of a compound that is named as a salt.
observable: Tmax (h)

> print(dat)
                                   compound  observable  result.units  reading
1  Cc1noc(-c2c(N)ncnc2N[C@@H](C)c2nc3cccc(C#CCO)c3c(=O)n2-c2ccccc2)n1 [crystal form A of bisulfate salt]        Tmax             h     1.50
2  Cc1noc(-c2c(N)ncnc2N[C@@H](C)c2nc3cccc(C#CCO)c3c(=O)n2-c2ccccc2)n1 [crystal form A of phosphate salt]        Tmax             h     1.50
3  Cc1noc(-c2c(N)ncnc2N[C@@H](C)c2nc3cccc(C#CCO)c3c(=O)n2-c2ccccc2)n1 [Free base crystal form 2]        Tmax             h     1.67
4  Cc1noc(-c2c(N)ncnc2N[C@@H](C)c2nc3cccc(C#CCO)c3c(=O)n2-c2ccccc2)n1 [crystal form A of Sulfate salt]        Tmax             h     1.17

###

test: Pharmacokinetics test in SD rats (oral gavage, PEG400 suspension); format: in vivo; settings: male, SD, rat, plasma, po, 200 mg/kg, read-out: Tmax
observable: Tmax (h)

> print(dat)
                                chem.smiles  observable  reading
1  Cc1noc(-c2c(N)ncnc2N[C@@H](C)c2nc3cccc(C#CCO)c3c(=O)n2-c2ccccc2)n1        Tmax     1.33
